System: HL-60(TB) leukemia
experimental.protocol: NCI-60 one-dose screen, 48 h (100 = growth as untreated, 0 = no growth, -100 = all killed)
measurement.conditions: 10 µM unless noted
This is part of a sample that, as a whole, favours compounds with a hit. Of some 83,000 tested, about 20% had one in any assay.
test.readout: growth (%)
Numbers only, in %.

{"columns": ["smiles.entry", "output.unit", "growth"],
 "data": [
  ["COc1ccc2oc(=O)cc(-c3c(C#N)c(N)n4nc(N)c(C#N)c4c3C#N)c2c1", "%", 96.4],
  ["CCCC(=O)OCC(COC(=O)CCC)OC(=O)CCC", "%", 100],
  ["O=C(c1cccc(N2CCOCC2)n1)c1c[nH]c2ccccc12", "%", 98.9],
  ["Cn1c2c(Cl)c(Cl)ccc2c2c(C#N)c[nH]c(=O)c21", "%", 107],
  ["Fc1ccc(-c2nc(Nc3ccc(-c4nc5ccccc5[nH]4)cc3)nc(N3CCOCC3)n2)cc1", "%", -81.4]
]}

Hello, I would appreciate it if you could give growth for each entry below.
1. CCc1oc2ccccc2c1C(=O)c1cc(I)c(O)c(I)c1
2. COc1ccccc1CNc1c2ccccc2nc2ccccc12
3. CS(=O)(=O)c1nsc(N)n1
4. COc1cc(/C=C/C(=O)c2nc3cc(F)ccc3nc2C)cc(OC)c1OC
5. CC(=O)Nc1sc2c(c1-c1nc3ccccc3s1)CNC2
6. COc1cc2c(cc1I)-c1c(cc(OC)c(OC)c1OC)CC[C@@H]2NC(C)=O

Output line:
1: 10.1; 2: 44.8; 3: 105; 4: -45.6; 5: 28.4; 6: 6.93

---

Test system: UO-31 renal
experimental.protocol: NCI-60 one-dose screen, 48 h
measurement.conditions: 10 µM unless noted
The panel holds about 83,000 compounds, 20% with a hit somewhere; the sample as a whole holds those more often. Active and inactive are the calls of the source. Rule for the calls: active = growth percent below 10; inactive = the rest.
Outcomes you can answer with include only these: TRUE for active, FALSE for inactive

Some entries whose results are on file:
{"columns": ["compound", "target", "assigned.label"],
 "data": [
  ["C/C(=C\\C(=O)O[C@H]1[C@@H]2[C@H](C)CC[C@H]2[C@]2(C)O[C@@]1(C1CCCCC1)C[C@H]2OC(=O)CO)c1ccccc1", "UO-31 renal", "TRUE"],
  ["CC(=O)O[C@H]1CCC2C3CCC4=C/C(=N/O)CCC4(C)C3CCC21C (some centres not stated)", "UO-31 renal", "FALSE"],
  ["O=C1NC2(CCNCC2)Nc2ccccc21", "UO-31 renal", "FALSE"],
  ["ClCCN(CCCl)c1ccc(/C=C\\c2ccnc3ccccc23)cc1", "UO-31 renal", "FALSE"],
  ["CCC(C)(C)O", "UO-31 renal", "FALSE"],
  ["CC(=O)O[C@@H]1C2=C(C)C3(CC3)[C@@](C)(O)C(=O)C2=C[C@@]1(C)CO", "UO-31 renal", "TRUE"],
  ["C[C@]12CC[C@@H]3c4ccc(OC(=O)Cc5ccc(N(CCCl)CCCl)cc5)cc4CC[C@H]3[C@@H]1CC[C@@H]2OC(=O)Cc1ccc(N(CCCl)CCCl)cc1", "UO-31 renal", "FALSE"],
  ["Cc1nnc([S-])s1.[Au+].c1ccc([PH+](c2ccccc2)c2ccccc2)cc1", "UO-31 renal", "TRUE"],
  ["COc1cccc2c1C(=O)c1c(O)c3c(c(O)c1C2=O)CC(O)(/C(C)=N/NC(=O)CCC(=O)N/N=C(\\C)C1(O)Cc2c(O)c4c(c(O)c2C(OC2CC(N)C(O)C(C)O2)C1)C(=O)c1c(OC)cccc1C4=O)CC3OC1CC(N)C(O)C(C)O1 (configuration not stated)", "UO-31 renal", "TRUE"],
  ["CC1(C)CC2(CC(C)(C)c3cc(O)c(O)cc32)c2cc(O)c(O)cc21", "UO-31 renal", "FALSE"]
]}

Input line: How was CCC(/C=C(C)/C=C/C(=O)c1c(O)c(-c2ccc(O)cc2)c[nH]c1=O)CO (configuration not stated) classified in this test?
Output line: FALSE

Input line: Outcome logged for CNc1ccc(C(=O)CC(O)CCC(C)C2OC(=O)CC(O)CC(=O)CC(O)CC(O)CC(O)CC(O)CC3(O)CC(O)C(C(=O)OC)C(CC(O[C@@H]4O[C@H](C)[C@@H](O)[C@H](N)[C@@H]4O)/C=C/C=C/C=C/C=C/C=C/C=C/C=C/C2C)O3)cc1 (some centres not stated) in this assay:
Output line: TRUE

Input line: Please indicate how the test categorized CC(=O)N1N=C(c2ccccc2)CC1c1sc(N(CCCl)CCCl)nc1Cl (configuration not stated) .
Output line: FALSE
